Biological target: T1, wild-type gC1qR (residues 74-282) (human, UniProt Q07021 74-282)
T1 construct: gC1qR/C1qBP/HABP-1, human, residues 74-282 (the mature form of the 282-residue pre-pro protein); Expressed from vector pT7HMT; the tag was removed with TEV protease; also called C1qBP; HABP-1; source: E. coli BL21(DE3), purified (NiNTA, TEV digestion, gel filtration Superdex S200)
T1 sequence (looked up): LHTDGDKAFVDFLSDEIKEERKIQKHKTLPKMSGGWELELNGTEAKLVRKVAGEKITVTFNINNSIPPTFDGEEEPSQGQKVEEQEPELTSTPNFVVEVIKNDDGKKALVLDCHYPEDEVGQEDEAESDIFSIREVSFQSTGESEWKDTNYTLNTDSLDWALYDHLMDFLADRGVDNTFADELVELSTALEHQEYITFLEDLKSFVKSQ
Assay: SPR; gC1qR proteins amine-coupled to a CMD200M chip (gC1qR 361 RU, D1 487 RU, D2 360 RU, DD 874 RU); HKH-20 injected 46.9 nM to 10 µM; 25°C, HBS-T (20 mM HEPES pH 7.4, 140 mM NaCl, 0.005% Tween-20); affinity (dose/response) model, apparent KD
Conditions: both partners purified
measured.endpoint: Kd
Param answer (str): number followed by unit.

IN: Consider the binder HKHGHGHGKHKNKGKKNGKH (The discussion speaks of peptides derived from HMWK residues 493-516 in general; also called HKH-20 peptide; source: synthetic peptide (GenScript)) [peptide HKH-20] and give its recorded Kd.
OUT: 8.7 µM

Where these numbers come from: paper PMC9294231
